assayed_system: human α1A-adrenergic receptor (Homo sapiens)
Sequence (P35348 1-466): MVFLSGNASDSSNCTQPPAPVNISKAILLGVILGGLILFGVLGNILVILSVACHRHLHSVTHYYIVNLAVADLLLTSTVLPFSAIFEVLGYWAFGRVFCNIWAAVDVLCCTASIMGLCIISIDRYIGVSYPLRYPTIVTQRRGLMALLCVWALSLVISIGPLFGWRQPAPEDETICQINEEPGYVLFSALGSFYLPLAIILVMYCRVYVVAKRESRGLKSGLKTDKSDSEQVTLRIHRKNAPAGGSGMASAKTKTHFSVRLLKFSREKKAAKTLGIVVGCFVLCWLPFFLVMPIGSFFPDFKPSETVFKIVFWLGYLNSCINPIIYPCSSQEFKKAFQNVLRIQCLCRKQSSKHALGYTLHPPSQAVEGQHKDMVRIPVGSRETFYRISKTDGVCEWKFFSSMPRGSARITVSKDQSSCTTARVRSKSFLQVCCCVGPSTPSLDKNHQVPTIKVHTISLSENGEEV
test: Test Case 4-B: human α1A-adrenergic receptor agonist activity (Cerep cellular functional GPCR, alpha 1A)
Format: cell-based
Design: expressed in transfected cells
test_settings: concentration 10 μM, norepinephrine = 100%
Source text: Measurement of Human α1A-Adrenergic Receptor Agonist Activity The human α1A-adrenergic receptor agonist activity] can be measured by […] Functional GPCR·Gs, alpha 1A (Ref. 722-36a) listed on p. 52 of the Cerep 2008 CATALOG IN VITRO PHARMACOLOGY & ADME-TOX.
reported_property: α1 receptor % of Control Agonist Response, Control; Norepinephrine (%)
Express it in %; write the number only.

These recorded examples may help you get a feel for the data.
| molecule | data_value |
| --- | --- |
| O=S(=O)(Nc1cccc([C@@H](O)CNCCOc2ccc3c(Cl)n[nH]c3c2)c1)c1ccccc1F [ex158] | 6.7 |
| Nc1ccc(F)c(S(=O)(=O)Nc2cccc([C@@H](O)CNCCOc3ccc4c(Cl)n[nH]c4c3)c2)c1 [ex242] | 0.6 |
| O=S(=O)(Nc1cccc([C@@H](O)CNCCOc2ccc3c(OC(F)F)n[nH]c3c2)c1)c1cn[nH]c1 [ex113] | 6.0 |

# context switch: different molecule, same α1 receptor % of Control Agonist Response, Control; Norepinephrine
Request the reported α1 receptor % of Control Agonist Response, Control; Norepinephrine associated with Nc1ccc(F)c(S(=O)(=O)Nc2cccc([C@@H](O)CNCCOc3ccc4c(OC(F)F)n[nH]c4c3)c2)c1 [ex106]
−0.2

----------
Catalogue of pEC50 readings, one per entry.
assayed_system: human α1A-adrenergic receptor (Homo sapiens, UniProt P35348)
test: Test Case 4-A: human α1A-adrenergic receptor agonist activity (HEK293, Ca flux, Fura-2)
Assay type: cell-based
Parameters: expressed in transfected cells; host or cells: HEK293 cells, pcDNA3.1
test_settings: Test Case 4-A; HEK293 cells, Ca flux; Table 4
// returns pEC50 (minus log10 of molar concentration), number only

| smiles_data | data_value |
| --- | --- |
| O=S(=O)(Nc1cccc([C@@H](O)CNCCOc2ccc3c(Cl)n[nH]c3c2)c1)C1CCC1 | 6.36 |

Any idea what pEC50 came out for O=S(=O)(Nc1cccc([C@@H](O)CNCCOc2ccc3c(CO)n[nH]c3c2)c1)C1CCC1 on human α1A-adrenergic receptor (Homo sapiens, UniProt P35348)?
7.36

Any idea what pEC50 came out for O=S(=O)(Nc1cccc([C@@H](O)CNCCOc2ccc3c(OC(F)F)n[nH]c3c2)c1)C1CCC1 on human α1A-adrenergic receptor (Homo sapiens, UniProt P35348)?
5.96

Any idea what pEC50 came out for O=S(=O)(Nc1cccc([C@@H](O)CNCCOc2ccc3c(C(F)(F)F)n[nH]c3c2)c1)C1CCC1 on human α1A-adrenergic receptor (Homo sapiens, UniProt P35348)?
5.77

Any idea what pEC50 came out for COc1n[nH]c2cc(OCCNC[C@H](O)c3cccc(NS(=O)(=O)C4CCC4)c3)ccc12 on human α1A-adrenergic receptor (Homo sapiens, UniProt P35348)?
6.42

Any idea what pEC50 came out for COc1n[nH]c2cc(OCCNC[C@H](O)c3cccc(NS(=O)(=O)C4CC4)c3)ccc12 on human α1A-adrenergic receptor (Homo sapiens, UniProt P35348)?
5.91

Any idea what pEC50 came out for Cn1cc(S(=O)(=O)Nc2cccc([C@@H](O)CNCCOc3ccc4c(C5CC5)n[nH]c4c3)c2)cn1 on human α1A-adrenergic receptor (Homo sapiens, UniProt P35348)?
6.01

Any idea what pEC50 came out for CCc1n[nH]c2cc(OCCNC[C@H](O)c3cccc(NS(=O)(=O)C4CCC4)c3)ccc12 on human α1A-adrenergic receptor (Homo sapiens, UniProt P35348)?
5.89

----------
assayed_system: human β3-adrenergic receptor (Homo sapiens)
Construct: A full-length human β3 gene is obtained from a human genomic library (made by Clontech) using this as the probe; expressed in transfected cells; host or cells: CHO (Chinese hamster ovary) cells, pcDNA3
Sequence (P13945 whole entry): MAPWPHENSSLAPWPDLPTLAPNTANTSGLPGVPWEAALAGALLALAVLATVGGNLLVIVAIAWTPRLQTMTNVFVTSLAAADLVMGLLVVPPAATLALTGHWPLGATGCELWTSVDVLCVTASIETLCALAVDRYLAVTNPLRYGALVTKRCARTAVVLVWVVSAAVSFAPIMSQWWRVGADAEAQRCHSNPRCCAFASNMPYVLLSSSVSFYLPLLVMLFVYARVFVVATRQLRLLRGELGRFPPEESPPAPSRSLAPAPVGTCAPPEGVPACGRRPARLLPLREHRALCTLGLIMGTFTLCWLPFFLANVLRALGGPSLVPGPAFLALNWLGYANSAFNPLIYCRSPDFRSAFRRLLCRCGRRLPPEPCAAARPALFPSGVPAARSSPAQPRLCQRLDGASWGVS
test: Test Case 1-B: human β3-adrenergic receptor agonist activity (cAMP-Screen, 96-well)
Assay type: cell-based
test_settings: 0.5 h; read-out: β3 receptor I.A.
reported_property: Emax (%)
Express it in %; write the number only.

| compound | data_value |
| --- | --- |
| Cc1n[nH]c2cc(OCCNC[C@H](O)c3cccc(NS(=O)(=O)c4c(F)cccc4F)c3)ccc12 [ex69] | 72 |
| O=S(=O)(Nc1cccc([C@@H](O)CNCCOc2ccc3c(OC(F)F)n[nH]c3c2)c1)C1CCC1 [ex115] | 86 |
| CCc1n[nH]c2cc(OCCNC[C@H](O)c3cccc(NS(=O)(=O)c4cccs4)c3)ccc12 [ex122] | 59 |
| CCc1n[nH]c2cc(OCCNC[C@H](O)c3cccc(NS(=O)(=O)c4cnn(C)c4)c3)ccc12 [ex135] | 105 |
| Cn1cc(S(=O)(=O)Nc2cccc([C@@H](O)CNCCOc3ccc4c(C5CC5)n[nH]c4c3)c2)cn1 [ex225] | 91 |

Request the reported Emax associated with CCc1n[nH]c2cc(OCCNC[C@H](O)c3cccc(NS(=O)(=O)c4cccc(N)c4)c3)ccc12 [ex118]
77

Request the reported Emax associated with COc1n[nH]c2cc(OCCNC[C@H](O)c3cccc(NS(=O)(=O)c4cccc(N)c4)c3)ccc12 [ex1]
110

Request the reported Emax associated with O=S(=O)(Nc1cccc([C@@H](O)CNCCOc2ccc3c(Cl)n[nH]c3c2)c1)c1ccccc1F [ex158]
90

----------
Catalogue of number of experimental animals matching Score 0 (no piloerection) readings, one per entry.
System: Male C57BL/6 Cr mice
test: Test Case 10: mouse piloerection test
Type: in vivo
test_settings: 10 mg/kg i.v., n=4, observation time 30 min, Score 0
Format: numeric value only, no unit, no commentary.

| smiles_data | data_value |
| --- | --- |
| COc1n[nH]c2cc(OCCNC[C@H](O)c3cccc(NS(=O)(=O)c4cc(N)ccc4F)c3)ccc12 | 4 |

Request the reported number of experimental animals matching Score 0 (no piloerection) associated with O=S(=O)(Nc1cccc([C@@H](O)CNCCOc2ccc3c(OC(F)F)n[nH]c3c2)c1)C1CC1
3

Request the reported number of experimental animals matching Score 0 (no piloerection) associated with COc1n[nH]c2cc(OCCNC[C@H](O)c3cccc(NS(=O)(=O)c4ccccc4F)c3)ccc12
2

Request the reported number of experimental animals matching Score 0 (no piloerection) associated with Cc1n[nH]c2cc(OCCNC[C@H](O)c3cccc(NS(=O)(=O)c4cnn(C)c4)c3)ccc12
3

Request the reported number of experimental animals matching Score 0 (no piloerection) associated with O=S(=O)(Nc1cccc([C@@H](O)CNCCOc2ccc3c(OC(F)F)n[nH]c3c2)c1)c1cn[nH]c1
4

Request the reported number of experimental animals matching Score 0 (no piloerection) associated with Cc1n[nH]c2cc(OCCNC[C@H](O)c3cccc(NS(=O)(=O)c4ccccc4F)c3)ccc12
4

Request the reported number of experimental animals matching Score 0 (no piloerection) associated with CCc1n[nH]c2cc(OCCNC[C@H](O)c3cccc(NS(=O)(=O)C4CC4)c3)ccc12
2

Request the reported number of experimental animals matching Score 0 (no piloerection) associated with CCc1n[nH]c2cc(OCCNC[C@H](O)c3cccc(NS(=O)(=O)c4cnn(C)c4)c3)ccc12
4

----------
assayed_system: human α1A-adrenergic receptor (Homo sapiens)
Sequence (P35348 1-466): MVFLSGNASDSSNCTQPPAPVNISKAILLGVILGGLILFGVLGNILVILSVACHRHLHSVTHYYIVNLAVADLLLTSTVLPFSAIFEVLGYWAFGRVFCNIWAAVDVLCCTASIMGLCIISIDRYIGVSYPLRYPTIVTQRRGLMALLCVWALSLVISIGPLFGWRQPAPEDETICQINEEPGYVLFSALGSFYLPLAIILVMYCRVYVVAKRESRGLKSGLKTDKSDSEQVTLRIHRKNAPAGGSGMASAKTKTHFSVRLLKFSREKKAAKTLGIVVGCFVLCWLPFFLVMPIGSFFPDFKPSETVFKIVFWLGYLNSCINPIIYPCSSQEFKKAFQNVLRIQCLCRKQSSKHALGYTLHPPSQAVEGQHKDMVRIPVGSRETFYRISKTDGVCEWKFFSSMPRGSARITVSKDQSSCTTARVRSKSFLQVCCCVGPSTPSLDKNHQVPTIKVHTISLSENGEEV
test: Test Case 4-A: human α1A-adrenergic receptor agonist activity (HEK293, Ca flux, Fura-2)
Assay type: cell-based
Design: expressed in transfected cells; host or cells: HEK293 cells, pcDNA3.1
test_settings: HEK293; read-out: α1A receptor I.A.
reported_property: Emax (%)
Express it in %; write the number only.

| smiles_data | data_value |
| --- | --- |
| Cc1n[nH]c2cc(OCCNC[C@H](O)c3cccc(NS(=O)(=O)c4ccccc4F)c3)ccc12 | 0 |

Request the reported Emax associated with CCc1n[nH]c2cc(OCCNC[C@H](O)c3cccc(NS(=O)(=O)c4cccnc4)c3)ccc12
0

Request the reported Emax associated with CCc1n[nH]c2cc(OCCNC[C@H](O)c3cccc(NS(=O)(=O)C4CCC4)c3)ccc12
61

Request the reported Emax associated with O=S(=O)(Nc1cccc([C@@H](O)CNCCOc2ccc3c(Cl)n[nH]c3c2)c1)C1CCC1
26

Request the reported Emax associated with Cc1cccc(S(=O)(=O)Nc2cccc([C@@H](O)CNCCOc3ccc4c(C)n[nH]c4c3)c2)c1
0

Request the reported Emax associated with O=S(=O)(Nc1cccc([C@@H](O)CNCCOc2ccc3c(C4CCC4)n[nH]c3c2)c1)C1CCC1
9

Request the reported Emax associated with COc1n[nH]c2cc(OCCNC[C@H](O)c3cccc(NS(=O)(=O)C4CCC4)c3)ccc12
75

Request the reported Emax associated with Cc1n[nH]c2cc(OCCNC[C@H](O)c3cccc(NS(=O)(=O)c4ccc(Cl)cc4)c3)ccc12
0
